Target: PAR4 (Homo sapiens, UniProt Q96RI0)
Construct: expressed in transfected cells; host or cells: HEK293 PAR4 Clone 1.2A (BMS Arctic ID 383940)
Sequence (Q96RI0 18-385): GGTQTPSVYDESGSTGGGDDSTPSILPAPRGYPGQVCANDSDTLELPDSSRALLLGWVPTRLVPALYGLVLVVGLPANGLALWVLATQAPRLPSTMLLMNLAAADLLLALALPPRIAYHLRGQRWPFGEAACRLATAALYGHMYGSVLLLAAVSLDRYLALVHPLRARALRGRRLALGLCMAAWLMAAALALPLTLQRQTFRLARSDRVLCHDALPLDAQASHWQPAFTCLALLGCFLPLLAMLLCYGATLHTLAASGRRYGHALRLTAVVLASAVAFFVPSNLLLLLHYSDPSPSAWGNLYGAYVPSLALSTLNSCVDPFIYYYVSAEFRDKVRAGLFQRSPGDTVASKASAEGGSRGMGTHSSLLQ
Assay: PAR4 FLIPR assay (antagonism of agonist peptide-induced calcium mobilization)
Format: cell-based
experimental-readout: IC50 (nM)

>  <compound>
COc1cnc2c(-c3nc4cc(F)c5c(c4s3)C[C@@H](CNC(=O)OCC(F)(F)F)O5)cc(C)cc2n1

>  <unit-descriptor>
nM

>  <val>
1

$$$$
>  <compound>
COc1cnc2c(-c3nc4ccc5c(c4s3)C[C@@H](CNC(=O)OCC3CCCCO3)O5)cc(C)cc2n1 (some centres unmarked)

>  <unit-descriptor>
nM

>  <val>
4.1

$$$$
>  <compound>
COc1cnc2c(-c3nc4c(Cl)cc5c(c4s3)OC[C@H](COC(=O)Nc3ccnnc3)O5)cc(C)cc2n1

>  <unit-descriptor>
nM

>  <val>
3.3

$$$$
>  <compound>
COc1cnc2c(-c3nc4ccc5c(c4s3)C[C@@H](CNC(=O)OCc3cccnc3)O5)cc(C)cc2n1

>  <unit-descriptor>
nM

>  <val>
3.3

$$$$
>  <compound>
COc1cnc2c(-c3nc4c(Cl)cc5c(c4s3)CC(COC(=O)Nc3cccnc3)O5)cc(C)cc2n1 (centres unmarked)

>  <unit-descriptor>
nM

>  <val>
5.7

$$$$
>  <compound>
COc1cnc2c(-c3nc4c(Cl)cc5c(c4s3)OC[C@H](COC(=O)Nc3ccc(C)nc3)O5)cc(C)cc2n1

>  <unit-descriptor>
nM

>  <val>
1

$$$$
>  <compound>
COc1cnc2c(-c3nc4c(C)cc5c(c4s3)OCC(COC(=O)Nc3ccc(N4CCN(C(=O)OC(C)(C)C)CC4)nc3)O5)cc(C)cc2n1 (centres unmarked)

>  <unit-descriptor>
nM

>  <val>
210

$$$$
>  <compound>
COc1cnc2c(-c3nc4c(C(O)C(C)(C)C)cc5c(c4s3)OCCO5)cc(C)cc2n1 (single isomer, unassigned) [Example 277]

>  <unit-descriptor>
nM

>  <val>
2.3

$$$$
